Just for reference, PubChem BioAssay (NCI) is where these values come from.

Record form. Attribute: TGI. Fill in for each entry.
Tested on: M14 melanoma
Assay: NCI tumour cell line growth inhibition, 48 h
Answers are plain numbers, in µM.

1) c1ccc(CCN(Cc2nc3ccccc3[nH]2)Cc2nc3ccccc3[nH]2)cc1
26.7

Next, consider the following compound.
input: Consider the compound CC[N+](CC)(CC)CCCn1c2c(c3ccccc3c1=O)C(=O)c1ccccc1-2 and give its recorded TGI.
output: 12.1

====

Answer each item with its documented GI50.
Test system: TK-10 renal
Experiment: NCI tumour cell line growth inhibition, 48 h

1. S=C(Nc1ccc(Cl)cc1)Nc1ccc(Cl)cc1 (tested in a mixture with another compound)
2.24 µM

Provide reported GI50 for each item, in the same order as listed.
1. C=C(CN1CCc2ccccc2C1)c1ccc(C(=O)Nc2ccc(N)cc2)cc1
2. C=C1C(=O)O[C@H]2[C@H]1CC/C(Cn1cc(-c3ccccc3)nn1)=C\CC[C@@]1(C)O[C@@H]21
3. OCCCCC#Cc1ccccc1C#Cc1ccccc1C(F)(F)F
4. O=C(Nc1ccc(Cl)cc1)c1cc2ccccc2cc1O
5. COc1nc(C)cc2c(=O)n(-c3ccccc3)n(CCCN3CCN(c4ccc(Cl)cc4)CC3)c(=O)c12
6. O=c1cc(-c2ccccc2)nc2n1CCN2Cc1ccccc1
7. O=C([CH-]C(=O)c1ccccc1)c1ccccc1.O=C([CH-]C(=O)c1ccccc1)c1ccccc1.[Nd+3].[OH-].[OH3+]

output:
["26.3 µM", "1.21 µM", "18.6 µM", "3.93 µM", "> 50 µM", "26.5 µM", "26.4 µM"]

input: For CC1=Cc2cc3[n-]c(cc4nc(cc5[n-]c(cc1n2)cc5C)C(C)=C4CCC(=O)O)c(CCC(=O)O)c3C.[Pd+2] , write its GI50.
output: 24.9 µM

====

System: MCF7 breast
Assay: NCI tumour cell line growth inhibition, 48 h
readoutKind: GI50

Solved entries:
1) C=C(CN1CCc2ccccc2C1)c1ccc(C(=O)Nc2ccc(N)cc2)cc1
14.8 µM
2) Cc1cc(S(=O)(=O)Nc2nnc(-c3ccccc3)c(-c3ccccc3)n2)c(SCc2ccccc2)cc1Cl
24 µM
3) S=C(N/N=C/c1ccccn1)Nc1ccccn1
0.472 µM
4) C[N+](C)(CCCCCC[N+](C)(C)CCCN1C(=O)c2cc3ccccc3cc2C1=O)CCCN1C(=O)c2ccccc2C1=O
> 37.5 µM

For every item below, please supply its GI50.
1. O=C1c2ccccc2-c2c1c1ccccc1c(=O)n2CCCN1CCOCC1
2. O=C1OC(=O)C2C1C1(c3ccccc3)C(c3ccccc3)=C(c3ccccc3)C2(c2ccccc2)S1=O (configuration not stated)
3. O=C(NOCC1CC1)c1ccc(F)c(F)c1Nc1ccc(I)cc1Cl

output:
["9.31 µM", "> 100 µM", "3.11 µM"]

====

Assignment: determine reported TGI for the given compounds.
Tested on: SF-295 CNS
Assay: NCI tumour cell line growth inhibition, 48 h

Example compounds with recorded TGI:
1. CC(=O)Nc1ccc(C2[C@H]3C(=O)N(c4ccc(Cc5ccc(N6C(=O)[C@@H]7ON(c8ccccc8)C(c8ccc(NC(C)=O)cc8)[C@@H]7C6=O)cc5)cc4)C(=O)[C@H]3ON2c2ccccc2)cc1 (stereo partly specified)
> 100 µM
2. C=C1C(=O)OC2CC3(CO3)C3C(O)C(O)CC3(C)CC12 (stereo unspecified)
> 100 µM
3. CC(=O)OCC1OC(n2c(=O)n(-c3ccccc3)c(=O)c3ccccc32)C(OC(C)=O)C(OC(C)=O)C1OC(C)=O (stereo unspecified)
> 100 µM

Below are some compounds; for each one, tell me its TGI.
1. CCC1(N=[N+]=[N-])C(=O)Nc2cc(C)ccc2C1=O (stereo unspecified)
2. c1ccc(N=C2c3ccccc3C3=NCCCN32)cc1
3. N#CS/C(Cl)=C(/C(Cl)=C(Cl)Cl)[N+](=O)[O-]
4. O=C(Nc1ccc(Cl)cc1)c1cc2ccccc2cc1O
5. CN(C)c1ccc2c3c(c(=O)oc2c1)CCC3
6. Cc1[nH]c(/C=C2\C(=O)Nc3ccc(F)cc32)c(C)c1C(=O)NC[C@H](O)CN1CCOCC1

output:
1: > 100 µM; 2: > 100 µM; 3: > 100 µM; 4: > 100 µM; 5: > 100 µM; 6: > 10 µM

Please state TGI for every compound in the list that follows.
1. O=C(/C=C/c1ccc(O)cc1)NCCc1ccc(O)cc1
2. COC(=O)C1=CC[C@@H]2C(C(=O)O)=CO[C@@H](OC3OC(CO)C(O)C(O)C3O)[C@H]12 (stereo partly specified)
3. COc1ccc(-c2nc(-c3cn(C)c4ncccc34)cs2)cc1

output:
["> 12.5 µM", "> 193 µM", "> 100 µM"]

Can you give me TGI for all of these, one by one?
1. CNC(=O)CCNC(=O)CCC(=O)OC
2. CCOC(=O)C1C(=O)c2ccccc2CN1Cc1ccccc1 (stereo unspecified)
3. O=C1CCCc2cc3c(cc21)CCC3C(=O)O (stereo unspecified)
4. O=C1C(=O)c2ccccc2C(O)=C1C(CCc1ccccc1)C1=C(O)c2ccccc2C(=O)C1=O

output:
> 100 µM
> 100 µM
> 100 µM
> 100 µM

====

Test system: OVCAR-5 ovarian
Assay: NCI tumour cell line growth inhibition, 48 h
readoutKind: TGI

The examples below pair each entry with its known result.
1) O=C1c2ccccc2-c2ccc(N=[N+]([O-])c3ccc4c(c3)C(=O)c3ccccc3-4)cc21
> 100 µM
2) COc1ccc(SC(C)(SC)c2ccccn2)c(OC)n1 (stereo not given)
> 100 µM
3) COC(=O)c1ccc(N=NN(C)CO)cc1
> 100 µM
4) O=C(/C=C/c1ccc(O)cc1)NCCc1ccc(O)cc1
> 12.5 µM

input: Identify the reported TGI for the following entry. COC12C=CC(CC1)C1C(=O)c3c(C)c(C)n(C)c3C(=O)C12 (stereo not given)
output: > 100 µM

====

Test system: M14 melanoma
Assay: NCI tumour cell line growth inhibition, 48 h
readoutKind: TGI

Some solved entries appear below for comparison.
1. COc1ccc(OC)c2nc3c(C(=O)NCCN(C)C)cccc3nc12
15.8 µM
2. N#C/C=C1\C=CC(O)C(O)C1OC1OC(CO)C(O)C(O)C1O (stereo not drawn)
> 100 µM

input: Lab note: M14 melanoma assay, enter TGI for COC12C=CC(CC1)C1C(=O)c3c(C)c(C)n(C)c3C(=O)C12 (stereo not drawn) here
output: > 100 µM

====

Tested on: NCI-H460 lung
Assay: NCI tumour cell line growth inhibition, 48 h
readoutKind: TGI

Solved entries (count: 8):
1) CC(=O)Nc1ccc2c(C)c3c4ccccc4n(C)c3nc2n1
15.5 µM
2) O=C1OC(=O)C2C1C1(c3ccccc3)C(c3ccccc3)=C(c3ccccc3)C2(c2ccccc2)S1=O (stereo not given)
> 100 µM
3) CNC(=O)CCNC(=O)CCC(=O)OC
> 100 µM
4) COc1ccc2ccc([Se]c3ccc4ccc(OC)cc4c3)cc2c1
> 100 µM
5) O=[N+]([O-])C1C2C=CC(C2)[C@H]1c1ccccc1Cl (stereo not given in full)
> 100 µM
6) CCN(CC)Cc1cc(Nc2c3ccccc3nc3c2[nH]c2ccccc23)ccc1O
2.71 µM
7) COC(=O)C(Nc1ccc(OC)cc1)c1ccccc1 (stereo not given)
> 100 µM
8) CC1NOC(=O)C1N=Nc1ccccc1Cl (stereo not given)
> 100 µM

Okay, here is my list. What is TGI for each of these?
1. CCC1(N=[N+]=[N-])C(=O)Nc2cc(C)ccc2C1=O (stereo not given)
2. O=C1OC2(c3ccccc3Oc3ccccc32)c2ccccc21

output:
> 100 µM
> 100 µM

====

Would you mind telling me the reported TGI of each entry?
Test system: COLO 205 colon
Assay: NCI tumour cell line growth inhibition, 48 h

Look over these answered cases.
1. O=C1CCCc2cc3c(cc21)CCC3C(=O)O (stereo unspecified)
> 100 µM
2. COc1ccc(C2C(Cl)C(=O)N2NC(=O)Cc2ccccc2)cc1 (stereo unspecified)
> 100 µM

Hi! Can you tell me TGI for each of these compounds?
1. O=C1/C(=C\c2cccc(Oc3ccccc3)c2)SC(c2ccccc2)N1c1ccc(Cl)cc1 (stereo unspecified)
2. S=C1N(c2ccc(Cl)cc2)C2=C(N=Nc3ccccc3)C(=Nc3ccccc3S2)N1c1ccccn1
3. COC(=O)[C@H](Cc1ccccc1)NC(=O)N1CCN(C(=O)N[C@@H](Cc2ccccc2)C(=O)OC)CCN(C(=O)N[C@@H](Cc2ccccc2)C(=O)OC)CC1
4. CC(=O)O[C@H]1C(=O)[C@@]2(C)[C@H]([C@H](OC(=O)C3CCCCC3)[C@]3(O)C[C@H](OC(=O)[C@H](O)[C@@H](NC(=O)C4CCCCC4)C4CCCCC4)C(C)=C1C3(C)C)[C@]1(OC(C)=O)CO[C@@H]1C[C@@H]2O

output:
["> 80.9 µM", "25.2 µM", "> 100 µM", "0.0266 µM"]
